System: SF-539 CNS
Assay: NCI-60 one-dose screen, 48 h
Details: 10 µM unless noted
About 83,000 compounds went through this panel and 20% of them were active in at least one assay; those are over-represented in the sample as a whole. Activity calls are given as the source filed them. Rule for the calls: active = growth percent below 10; inactive = the rest.
// classify into y = active, n = inactive

• COc1cc(/C=C/C(=O)N2CCC=CC2=O)cc(OC)c1OC = n
• C=C1C(=O)O[C@H]2[C@H]1CC/C(COC(=O)c1cc(OC)c(OC)c(OC)c1)=C\CC[C@@]1(C)O[C@@H]21 = y
• COC(=O)c1oc2c(C(C)=O)c(OCCN3CCCCC3)ccc2c1C = n
• O=c1c2ccccc2sc2c(NCCCNCCO)nc3ccccc3c12 = n
• Cc1ccc2[nH]c3nc4cccnc4c(C)c3c2c1 = n
• CC(C)(C)OC(=O)N1CC(Cn2cc(C(F)(F)F)c3c(Cl)ncnc32)C1 = n
• COC(OC)C1(c2ccccc2)NC(=O)NC1=O (stereo not given) = n
• O=C(NCCNc1nccc(-c2c(-c3cccc(O)c3)nc3sccn23)n1)c1ccc(N2CCOCC2)c(C(F)(F)F)c1 = n
• O=C(Nc1ccc(-n2ccc3c(NC(=O)c4ccccc4)nccc32)cc1)c1ccc(Cl)c(C(F)(F)F)c1 = n
• S=c1ssnc1-c1ccccn1 = n

Give the logged outcome of this assay for the following molecule: COc1ccc2c(c1)nnn1c3ncccc3c(N=O)c21 y

Okay, and COc1ccc(-c2ccc(NC(=O)Nc3cccc(C(F)(F)F)c3)c(C)n2)cc1 ? n

Okay, and CCOC(=O)C(C)(CSSCC(C)(NC(=O)c1ccc2ccccc2c1)C(=O)OCC)NC(=O)c1ccc2ccccc2c1 (stereo not given) ? n

Okay, and CC(=O)Nc1ccc([I+]c2ccc([N+](=O)[O-])cc2)cc1 ? n

Okay, and CN1C(=O)C2(SCC(C(=O)NCC(=O)OC(C)(C)C)N2C(=O)C2CCCCC2)c2ccccc21 (stereo not given) ? n

Okay, and COc1ccccc1N1CCN(CCCOc2ccc(OCCCN3CCN(c4ccccc4OC)CC3)c(C(=O)c3cc(OC)c(OC)c(OC)c3)c2)CC1 ? n

Okay, and Cc1ccc(Cn2cc(COc3ccc4c5ccnc(C)c5n(CCCc5ccccc5)c4c3)nn2)cc1 ? n

Okay, and C=CCn1c(SCC(=O)Nc2ccc(C(=O)/C=C/c3cc(OC)c(OC)c(OC)c3)cc2)nnc1-c1ccc(OC)cc1 ? y

Okay, and COc1cc(-c2nc(SCC(=O)Nc3ccc(C(C)=O)cc3)[nH]c(=O)c2C#N)cc(OC)c1OC ? y

Okay, and CCOC(=O)c1noc2c1CCc1cn(Cc3cc(OC)cc(OC)c3)cc1-2 ? n
